# Test system: UACC-62 melanoma
# ASSAY INFO: NCI-60 one-dose screen, 48 h (100 = growth as untreated, 0 = no growth, -100 = all killed)
# CONDITION CONTEXT: 10 µM unless noted
The panel holds about 83,000 compounds, 20% with a hit somewhere; the sample as a whole holds those more often.

{"COMPOUND": "CCOC(=O)C1=C(N)N(c2ccccc2)C2=C(C(=O)CC(C)(C)C2)C1c1ccc([N+](=O)[O-])cc1 (centres undefined)", "ASSAY SYSTEM": "UACC-62 melanoma", "growth (%)": 66.6}
{"COMPOUND": "Cn1cc(-c2nc(N)nnc2-c2c[nH]c3ccc(F)cc23)c2cc(Br)cnc21", "ASSAY SYSTEM": "UACC-62 melanoma", "growth (%)": 13.3}
{"COMPOUND": "COc1ccc2[nH]c(O)c(N=NC(=O)COc3ccc(NC(=O)Nc4ccccc4)cc3)c2c1", "ASSAY SYSTEM": "UACC-62 melanoma", "growth (%)": 10.1}
{"COMPOUND": "CSc1ccc(C(=O)Nc2ccc3nnn(/C(C#N)=C/c4ccccn4)c3c2)cc1", "ASSAY SYSTEM": "UACC-62 melanoma", "growth (%)": -51.3}
{"COMPOUND": "COc1ccc([C@H](C)Nc2nc(Cl)nc3ccccc23)cc1", "ASSAY SYSTEM": "UACC-62 melanoma", "growth (%)": 47.8}
{"COMPOUND": "COc1ccc(/C=C2\\C(=N)N=C(SCc3nc4ccccc4[nH]3)NC2=O)cc1", "ASSAY SYSTEM": "UACC-62 melanoma", "growth (%)": 103}
{"COMPOUND": "COc1ccc2nc(Nc3cccc(NC(=O)c4ccc(CN5CCCN(C)CC5)c(C(F)(F)F)c4)c3)ccc2c1", "ASSAY SYSTEM": "UACC-62 melanoma", "growth (%)": -61.1}
{"COMPOUND": "COc1ccc(C2CC(c3ccc(S(=O)(=O)NCCNc4nc(Nc5ccc(F)cc5)nc(N(C)C)n4)cc3)=Nc3c(N)nc(N)nc3N2)cc1 (centres undefined)", "ASSAY SYSTEM": "UACC-62 melanoma", "growth (%)": 81.6}
{"COMPOUND": "Cc1ccc(Cc2cnc(NC(=O)c3ccc(/C=C4\\SC(=S)N(C)C4=O)cc3)s2)cc1", "ASSAY SYSTEM": "UACC-62 melanoma", "growth (%)": 25.1}

====

# System: HOP-62 NSCLC
# ASSAY INFO: NCI-60 one-dose screen, 48 h (100 = growth as untreated, 0 = no growth, -100 = all killed)
# CONDITION CONTEXT: 10 µM unless noted
This is part of a sample that, as a whole, favours compounds with a hit. Of some 83,000 tested, about 20% had one in any assay.
Note to self: growth under 90% means true, ties and anything higher get false.

{"MOL": "Cc1ccc(S(=O)(=O)c2nc(S(=O)(=O)c3ccc(C)cc3)c(Cl)s2)cc1", "CATEGORY": "false"}
{"MOL": "COc1cccc(/C=C/c2nc3ccccc3c(=O)n2CC(=O)Nc2ccc(Cl)cc2)c1", "CATEGORY": "true"}
{"MOL": "Cc1cc2nc3c([nH]c2cc1C)c1ccc(=O)cc1n3CCN(C)C", "CATEGORY": "true"}
{"MOL": "O=C1c2c(c3c4cc(F)ccc4oc3c3[nH]c4ccc(Br)cc4c23)C(=O)N1O", "CATEGORY": "true"}
{"MOL": "Clc1cccc(Cl)c1/C=C/c1cc(/C=C/c2ccc(Br)cc2)c2ccccc2n1", "CATEGORY": "false"}
